molecular target: canine CD3 on canine T cells (canine PBMC) (canine, UniProt P27597 22-202); assay: cell-based or functional assay
Sequence (P27597 22-202 limits assumed, chain 1 of 3): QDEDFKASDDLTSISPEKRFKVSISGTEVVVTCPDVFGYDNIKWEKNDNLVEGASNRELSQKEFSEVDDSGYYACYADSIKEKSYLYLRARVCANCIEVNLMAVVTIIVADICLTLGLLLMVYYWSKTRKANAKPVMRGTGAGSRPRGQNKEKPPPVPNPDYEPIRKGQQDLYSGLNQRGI
Sequence (chain, as listed by the source limits assumed, chain 2 of 3): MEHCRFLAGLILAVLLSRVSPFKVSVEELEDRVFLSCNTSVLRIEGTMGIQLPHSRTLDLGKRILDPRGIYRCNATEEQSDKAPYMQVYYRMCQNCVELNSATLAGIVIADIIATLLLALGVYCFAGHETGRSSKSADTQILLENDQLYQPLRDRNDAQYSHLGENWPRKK
Sequence (chain, as listed by the source limits assumed, chain 3 of 3): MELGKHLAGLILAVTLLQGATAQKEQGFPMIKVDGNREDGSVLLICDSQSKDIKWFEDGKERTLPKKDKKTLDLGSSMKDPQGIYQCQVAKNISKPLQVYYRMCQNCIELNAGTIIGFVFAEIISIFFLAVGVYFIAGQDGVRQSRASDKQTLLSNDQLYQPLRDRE
We label by threshold. Values of Ki67 Proliferation, Day 6, IS strictly beneath 3 are Satisfied. Values of 3 and up are Not satisfied.

binder	class
PMX194 (monospecific anti-canine CD3, canine IgG-B effector function deficient Fc) (antibody, V domains shown) VH: EVQLVESGGDLVKPGGSLRLSCVASGFTFSNYHMSWVRQAPGKGLQWVAYSNSGRMSTDYADAVKGRFTISRDNAKNTLYLQMNSLRPEDTAVYYCATVIYGLFDYWGQGTLVTVSS VL: DIVMTQTPLSLSVSPGEPASISCKASQSLLYSNGNTYLYWFRQKPGQSPQRLIYKVSKRDSGVPDRFSGSGSGTDFTLRIRRVEADDAGVYYCGQGTQDPYTFSQGTKLEIK	Satisfied
PMX181 (monospecific anti-canine CD3, canine IgG-B effector function deficient Fc) (antibody, V domains shown) VH: ELTLQESGPGLVKPSQTLSLTCIVSGGSVTNNYYWTWIRQRPGRGLEWMGYWTGFTNYNPAFQGRISIIANTAKKQLSLQLSSLTTEDTAVYYCARRAIPTYFDYWGQGTLVTVSS VL: SYVLTQLPSKNVTLKQPAHITCGGDNIGSRSVHWYQQKLGQAPVLIIYYDSSRPTGIPERFSGANSGNTATLTISGALAEDEADYYCQVWDSSASVFGGGTHLTVL	Satisfied
PMX163 (monospecific anti-canine CD3, canine IgG-B effector function deficient Fc) (antibody, V domains shown) VH: ELALQESGPGLVRPSQTLSLTCVVSGGSVTRSYYWNWIRQRPGRGLEWMGYWTGTTIYNPAFQGRISITVDTAKNQFSLHLISMTTEDTAVYYCGREGGSSLGAIAYWGQGTRVTVSS VL: SYVLTQLPSKNVTLKQPAHITCGGDNIGSKSVHWYQQKLGQAPVLIIYYDSSRPTGIPERFSGANSGNTATLTISGALAEDEADYYCQVWDSSAKAAVFGGGTHLTVL	Not satisfied
PMX178 (monospecific anti-canine CD3, canine IgG-B effector function deficient Fc) (antibody, V domains shown) VH: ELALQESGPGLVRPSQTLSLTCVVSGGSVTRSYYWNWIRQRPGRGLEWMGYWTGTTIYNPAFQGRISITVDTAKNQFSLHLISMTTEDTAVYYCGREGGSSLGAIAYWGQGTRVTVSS VL: SYVLTQLPSKNVTLKQPAHITCGGDNIGRKSVHWYQQKLGQAPVLIIYYDSSRPTGIPERFSGANSGNTATLTISGALAEDEADYYCQVWDSSAKAAVFGGGTHLTVL	Satisfied
